molecular target: ΔF508-CFTR (Homo sapiens, UniProt P13569, DEL508-508); construct: host or cells: CFBE41o-, doxycycline-inducible; test: CFTR cell surface levels using HRP-tagged ΔF508-CFTR expressing CFBE cells, in the presence of a co-corrector; assay type: cell-based; conditions: HRP-tagged ΔF508-CFTR CFBE cells, in the presence of 3 μM co-corrector
Sequence (P13569 with tags, fused parts or gaps DEL508-508): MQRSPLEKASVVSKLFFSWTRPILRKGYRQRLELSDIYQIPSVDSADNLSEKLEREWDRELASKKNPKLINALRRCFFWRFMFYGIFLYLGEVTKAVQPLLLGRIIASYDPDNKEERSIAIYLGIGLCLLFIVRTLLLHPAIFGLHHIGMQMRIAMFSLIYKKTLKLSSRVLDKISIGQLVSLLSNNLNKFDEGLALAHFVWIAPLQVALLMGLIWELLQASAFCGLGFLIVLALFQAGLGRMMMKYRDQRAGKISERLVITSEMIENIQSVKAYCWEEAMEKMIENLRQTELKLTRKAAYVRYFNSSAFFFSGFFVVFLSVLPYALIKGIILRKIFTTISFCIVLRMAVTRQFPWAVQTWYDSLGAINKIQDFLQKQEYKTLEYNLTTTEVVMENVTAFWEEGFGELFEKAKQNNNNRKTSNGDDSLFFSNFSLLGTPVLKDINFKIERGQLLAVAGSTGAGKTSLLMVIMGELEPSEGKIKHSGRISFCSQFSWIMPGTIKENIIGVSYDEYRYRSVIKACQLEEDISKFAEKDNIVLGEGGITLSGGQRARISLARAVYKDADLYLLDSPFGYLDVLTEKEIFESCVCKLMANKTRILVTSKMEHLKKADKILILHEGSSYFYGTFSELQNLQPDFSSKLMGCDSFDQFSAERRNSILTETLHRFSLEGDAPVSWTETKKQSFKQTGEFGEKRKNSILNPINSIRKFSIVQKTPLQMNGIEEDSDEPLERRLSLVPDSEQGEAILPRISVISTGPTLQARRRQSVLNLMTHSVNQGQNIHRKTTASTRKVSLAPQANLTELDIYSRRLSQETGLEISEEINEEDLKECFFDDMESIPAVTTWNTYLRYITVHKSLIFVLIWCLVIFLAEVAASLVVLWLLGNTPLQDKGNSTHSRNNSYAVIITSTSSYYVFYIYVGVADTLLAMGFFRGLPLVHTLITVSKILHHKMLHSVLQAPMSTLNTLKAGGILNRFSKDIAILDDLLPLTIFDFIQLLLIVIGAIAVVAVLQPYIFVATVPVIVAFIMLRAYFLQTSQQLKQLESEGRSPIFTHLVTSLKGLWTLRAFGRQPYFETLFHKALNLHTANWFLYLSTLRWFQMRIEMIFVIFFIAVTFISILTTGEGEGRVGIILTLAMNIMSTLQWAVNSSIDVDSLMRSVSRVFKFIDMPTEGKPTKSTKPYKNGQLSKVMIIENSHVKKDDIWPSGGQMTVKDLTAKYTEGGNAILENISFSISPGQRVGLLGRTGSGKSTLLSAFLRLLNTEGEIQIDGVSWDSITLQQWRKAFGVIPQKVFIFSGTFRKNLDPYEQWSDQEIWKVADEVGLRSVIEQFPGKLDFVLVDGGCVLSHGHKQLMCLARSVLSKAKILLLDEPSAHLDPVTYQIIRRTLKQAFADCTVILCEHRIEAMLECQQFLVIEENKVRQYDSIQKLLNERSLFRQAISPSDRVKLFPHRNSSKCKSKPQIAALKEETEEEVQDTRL
Simple rule here: % Activation less than 400% is fulfilled, otherwise not fulfilled.

These solved cases illustrate the format of a correct answer.
> print(dat)
                                   compound  classification
1  CC1(S(=O)(=O)NC(=O)c2cc(N3CCC(N4CCN(C5CC5)CC4)CC3)c3c(C4CCC4)nn(-c4ccccc4)c3n2)CC1 [Compound 557]   not fulfilled
2  CS(=O)(=O)NC(=O)c1cc(N2CCC(N3CCOCC3)CC2)c2c(C3CCC3)nn(-c3ccnc(C4CCOCC4)c3)c2n1 [Compound 490]       fulfilled
3  CCS(=O)(=O)NC(=O)c1cc(-c2ccc(OC)cc2)c2c(C)nn(-c3cccc(C)c3)c2n1 [Compound 28]       fulfilled
4  CC(C)Oc1nn(C2CCCCC2)c2nc(C(=O)NS(C)(=O)=O)cc(-c3ccc(C(=O)N4CCN(C)CC4)cc3)c12 [Compound 422]   not fulfilled

Consider the additional compound presented here.
input: Could you please tell me whether % Activation recorded for CC(C)c1nn(-c2ccc(F)cc2)c2nc(C(=O)NS(C)(=O)=O)cc(N3CCC(C#N)CC3)c12 [Compound 240] is less than 400%?
output: fulfilled
